- Tested on: SLK
- TEST_CONDITIONS: concentration: 1 μM, replicates: in singlicate; n = 1;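 further: KINOMEscan kinase panel screen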
REPORTED_METRIC: %Inh (%)
# unit: % | format: bare number

Example cases with answers are listed next.
{"CHEMICAL_SMILES": "Nc1ncc(-c2ccc3nccc(-c4ccncc4)c3c2)cc1S(=O)(=O)N1CCCCC1", "UOM": "%", "QUANTITATIVE_RESULT": 69}
{"CHEMICAL_SMILES": "COc1cccc(C2=C(Nc3cccc(O)c3)C(=O)NC2=O)c1", "UOM": "%", "QUANTITATIVE_RESULT": 69}

Query compound follows.
Exercise: Record request: %Inh value, item "CN(C)CCNS(=O)(=O)c1ccc(-c2ccnc3[nH]ccc23)cc1"
Key: 71

###

- System: GSK3A
- TEST_CONDITIONS: concentration: 1 μM, replicates: in singlicate; n = 1
Criterion: %Inh strictly less than 1%. Met: true. Not met: false.

Exercise: Take the compound NCCC(NC(=O)c1cc(Br)c(-c2ccnc3[nH]ccc23)s1)c1ccccc1.O=C(O)C(F)(F)F.O=C(O)C(F)(F)F (centres unmarked) [GSK1307810] and say whether its %Inh is less than 1%.
Key: true

Exercise: Take the compound CSc1ccc(NC2=C(c3ccc(Cl)cc3)C(=O)NC2=O)cc1 [SB-317658] and say whether its %Inh is less than 1%.
Key: false

Exercise: Take the compound Cc1cccc(Nc2nc(NCCN)ncc2C(N)=O)c1 [GSK1292139] and say whether its %Inh is less than 1%.
Key: false

Exercise: Take the compound "CN(c1ccc(F)c(NC(=O)c2cccc(OC(C)(C)C#N)c2Cl)c1)c1ccc2nc(NC(=O)C3CC3)sc2n1" and say whether its %Inh is less than 1%.
Key: false

Exercise: Take the compound CC(C)NCC(Cc1ccccc1)NC(=O)c1cc(Br)c(-c2ccnc3[nH]ccc23)s1.Cl.Cl (centres unmarked) [GSK1383281] and say whether its %Inh is less than 1%.
Key: false

###

Reported %Inh by item:
- Tested on: PKMYT1
- TEST_CONDITIONS: concentration: 1 μM, replicates: in singlicate; n = 1
Answer format reminder: number followed by unit.

Example cases with answers are listed next.
{"COMPOUND": "O=C(O)C(F)(F)F.O=c1[nH]ccc2nc(N[C@@H]3CCNC3)nc(Nc3ccc4c(c3)S(=O)(=O)CC4)c12", "REPORTED_METRIC": "%Inh", "RESULT": "16%"}
{"COMPOUND": "CCNc1nccc(-c2c(-c3ccc(F)cc3)ncn2C2CCN(C)CC2)n1", "REPORTED_METRIC": "%Inh", "RESULT": "0%"}
{"COMPOUND": "CC(C)c1nc(-c2ccc(F)c(NS(=O)(=O)c3c(F)cccc3F)c2)c(-c2ccnc(Nc3ccc(N4CCOCC4)nc3)n2)s1", "REPORTED_METRIC": "%Inh", "RESULT": "4%"}
{"COMPOUND": "COc1cc(Nc2nccc(N3CCC(NC(=O)Nc4ccc5c(c4)OCO5)C3)n2)cc(OC)c1OC (stereo not shown)", "REPORTED_METRIC": "%Inh", "RESULT": "0%"}
{"COMPOUND": "Cn1cc(-c2ccc3c(c2)CCN3C(=O)Cc2cc(F)cc(C(F)(F)F)c2)c2c(N)ncnc21", "REPORTED_METRIC": "%Inh", "RESULT": "0%"}
{"COMPOUND": "CN(c1ccc2c(c1)nc(NCc1ccccc1)n2C)c1ccnc(Nc2ccc(CS(C)(=O)=O)cc2)n1.Cl", "REPORTED_METRIC": "%Inh", "RESULT": "0%"}
{"COMPOUND": "Cc1ccc(NC(=O)c2ccc(Cl)c(Cl)c2)cc1-c1ccc(C(=O)Nc2ccncc2)cc1", "REPORTED_METRIC": "%Inh", "RESULT": "31%"}
{"COMPOUND": "N#Cc1cnc2cc(-c3cnc(CNCCN4CCOCC4)s3)ccc2c1Nc1ccc(Oc2ccccc2)cc1", "REPORTED_METRIC": "%Inh", "RESULT": "0%"}
{"COMPOUND": "CN1CCN(Cc2ccc(NC(=O)Nc3ccc(N(C)c4ccnc(Nc5ccc(CS(C)(=O)=O)cc5)n4)cc3)cc2)CC1.Cl", "REPORTED_METRIC": "%Inh", "RESULT": "10%"}
{"COMPOUND": "CCNC(=O)/C=C/c1n[nH]c2cc(Sc3ccccc3C(=O)NC)ccc12", "REPORTED_METRIC": "%Inh", "RESULT": "30%"}

Exercise: Record request: %Inh value, item "COc1cccc(C2=C(Nc3cccc(O)c3)C(=O)NC2=O)c1"
Key: 9%

Exercise: Record request: %Inh value, item "COc1ccc(C2=C(Nc3cccc(O)c3)C(=O)NC2=O)cc1"
Key: 13%

Exercise: Record request: %Inh value, item "c1ccc(Oc2ccc(Nc3ccnc4cc(-c5ccc(CN6CCCCC6)o5)ccc34)cc2)nc1"
Key: 0%

Exercise: Record request: %Inh value, item "Nc1ncc(-c2cn[nH]c2)c2scc(-c3ccc4c(c3)CCN4C(=O)Cc3ccccc3)c12"
Key: 0%

Exercise: Record request: %Inh value, item "COc1cccc(-c2nc(-c3ccccc3)[nH]c2-c2ccncc2)c1"
Key: 0%

Exercise: Record request: %Inh value, item "COc1cc(Nc2ccnc3cc(-c4ccncc4)ccc23)cc(OC)c1OC.Cl"
Key: 0%

Exercise: Record request: %Inh value, item "Cn1cc(-c2ccc3c(c2)CCN3C(=O)Cc2cc(F)cc(F)c2F)c2c(N)ncnc21"
Key: 0%

###

- Tested on: RIPK2
- TEST_CONDITIONS: concentration: 1 μM, replicates: in singlicate; n = 1
Reported %Inh by item:
# unit: % | format: bare number

Example cases with answers are listed next.
{"COMPOUND": "Cc1ccc(O)cc1Nc1ccnc2ccc(C(C)(C)C)cc12", "TARGET_ENTITY": "RIPK2", "REPORTED_METRIC": "%Inh", "QUANTITATIVE_RESULT": 79}
{"COMPOUND": "Cl.Cl.NCC(NC(=O)c1cc(-c2cccnc2)c(-c2ccnc3[nH]ccc23)s1)c1ccccc1 (stereo not shown)", "TARGET_ENTITY": "RIPK2", "REPORTED_METRIC": "%Inh", "QUANTITATIVE_RESULT": 26}
{"COMPOUND": "Fc1cc(Cl)ccc1Nc1ccnc2cc(-c3ccc(CN4CCSCC4)o3)ccc12", "TARGET_ENTITY": "RIPK2", "REPORTED_METRIC": "%Inh", "QUANTITATIVE_RESULT": 94.7}
{"COMPOUND": "Cc1nn2c(=O)cc(N3CCO[C@H](C)C3)nc2n1Cc1cccc(Cl)c1Cl", "TARGET_ENTITY": "RIPK2", "REPORTED_METRIC": "%Inh", "QUANTITATIVE_RESULT": 61}
{"COMPOUND": "CC(C)c1nc(-c2cccc(NS(=O)(=O)c3c(F)cccc3F)c2)c(-c2ccnc(Nc3ccc(N4CCOCC4)nc3)n2)s1.Cl", "TARGET_ENTITY": "RIPK2", "REPORTED_METRIC": "%Inh", "QUANTITATIVE_RESULT": 97.7}

Exercise: Record request: %Inh value, item "O=C(O)C(F)(F)F.O=c1[nH]ccc2nc(N[C@@H]3CCNC3)nc(Nc3ccc4c(c3)S(=O)(=O)CC4)c12"
Key: 9

Exercise: Record request: %Inh value, item "CC(C)(C)c1ccc(C(=O)Nc2cn3cc(-n4ccnc4)ccc3n2)cc1"
Key: 24

Exercise: Record request: %Inh value, item "N#CC1(c2cccc(C(=O)Nc3cccc(Oc4ccc5nc(NC(=O)C6CC6)sc5n4)c3)c2)CC1"
Key: 55

Exercise: Record request: %Inh value, item "Cl.N#CCc1ccc(Nc2nccc(Nc3ccc(Oc4ccccc4)cc3)n2)cc1"
Key: 96.1

Exercise: Record request: %Inh value, item "c1ccc(Oc2ccc(Nc3ccnc4cc(-c5ccc(CN6CCCCC6)o5)ccc34)cc2)nc1"
Key: 96.3

###

- Tested on: HASPIN
- Construct: gene GSG2
- TEST_CONDITIONS: concentration: 1 μM, replicates: in singlicate; n = 1
REPORTED_METRIC: %Inh (%)
# unit: % | format: bare number

{"MOLECULE": "CCNC(=O)/C=C/c1n[nH]c2cc(Sc3ccccc3C(=O)NC)ccc12", "UOM": "%", "%Inh": 14}
{"MOLECULE": "COC(=O)Nc1nc2cc(Oc3ccc(NC(=O)Nc4cccc(SC)c4)cc3)ccc2[nH]1.Cl [GW697999]", "UOM": "%", "%Inh": 0}

Exercise: Record request: %Inh value, item Cn1cc(-c2ccc3c(c2)CCN3C(=O)Cc2cc(F)cc(F)c2F)c2c(N)ncnc21 [GSK2634140]
Key: 32

Exercise: Record request: %Inh value, item COc1cccc(-c2nc(-c3ccccc3)[nH]c2-c2ccncc2)c1 [SB-610250]
Key: 66

Exercise: Record request: %Inh value, item N#Cc1cnc2cc(-c3cnc(CNCCN4CCOCC4)s3)ccc2c1Nc1ccc(Oc2ccccc2)cc1 [GW664114]
Key: 0

Exercise: Record request: %Inh value, item "CC(C)(C)c1ccc(C(=O)Nc2cn3cc(-n4ccnc4)ccc3n2)cc1"
Key: 7

Exercise: Record request: %Inh value, item "CS(=O)(=O)c1cccc(CNc2nc(Nc3ccc4c(c3)CCC(=O)N4)ncc2C(F)(F)F)c1"
Key: 0

Exercise: Record request: %Inh value, item O=C(O)C(F)(F)F.O=c1[nH]ccc2nc(N[C@@H]3CCNC3)nc(Nc3ccc4c(c3)S(=O)(=O)CC4)c12 [GSK2181306]
Key: 90

Exercise: Record request: %Inh value, item CN1CCN(Cc2ccc(NC(=O)Nc3ccc(N(C)c4ccnc(Nc5ccc(CS(C)(=O)=O)cc5)n4)cc3)cc2)CC1.Cl [GW827654]
Key: 19

Exercise: Record request: %Inh value, item Cc1ccccc1CC(=O)N1CCc2cc(-c3cn(C)c4ncnc(N)c34)ccc21 [GSK2603346]
Key: 0

Exercise: Record request: %Inh value, item CCn1cnc2c(NCc3ccccc3)ncnc21 [SKF-96418]
Key: 10
